# Subject Of Test: α-glucosidase (maltase) enzyme from Yeast (Saccharomyces cerevisiae)
# Construct: purchased Sisco Research Laboratories Pvt; Ltd
# Sequence (P53341 whole entry): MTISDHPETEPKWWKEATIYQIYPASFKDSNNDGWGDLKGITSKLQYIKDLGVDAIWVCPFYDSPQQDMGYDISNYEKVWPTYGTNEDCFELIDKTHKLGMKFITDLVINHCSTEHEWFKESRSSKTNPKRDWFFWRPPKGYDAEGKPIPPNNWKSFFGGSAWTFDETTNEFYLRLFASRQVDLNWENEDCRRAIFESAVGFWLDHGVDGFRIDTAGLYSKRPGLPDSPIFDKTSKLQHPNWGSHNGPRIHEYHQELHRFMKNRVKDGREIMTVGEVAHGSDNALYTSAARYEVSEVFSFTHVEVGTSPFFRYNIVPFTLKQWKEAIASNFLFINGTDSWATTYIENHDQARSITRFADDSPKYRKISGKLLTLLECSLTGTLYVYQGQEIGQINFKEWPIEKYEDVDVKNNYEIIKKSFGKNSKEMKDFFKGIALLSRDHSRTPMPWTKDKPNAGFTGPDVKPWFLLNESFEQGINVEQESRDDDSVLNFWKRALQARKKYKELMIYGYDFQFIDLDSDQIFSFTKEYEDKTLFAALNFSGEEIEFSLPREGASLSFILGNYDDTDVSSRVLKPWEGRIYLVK
# Test Method Notes: biochemical
# Type: biochemical
# Condition Set: yeast α-glucosidase (maltase) 1 U mL^−1, phosphate buffer pH 6.8, 37 °C
Measurement Type: IC50 (α-glucosidase inhibition)

{"Compound": "O=C(C=Cc1ccccc1Br)NNC(=O)C(c1ccccc1)C1CCCC1 (stereo not shown)", "Result": "moderate inhibition"}
{"Compound": "Cc1ccc(C=CC(=O)NNC(=O)C(c2ccccc2)C2CCCC2)cc1 (stereo not shown)", "Result": "moderate inhibition"}

====

# maps each entry to its IC50
# Subject Of Test: α-glucosidase (maltase) enzyme from Yeast (Saccharomyces cerevisiae)
# Construct: purchased Sisco Research Laboratories Pvt; Ltd
# Test Method Notes: biochemical
# Type: biochemical
Provide only the numeric value, understood in nM.

{"Compound": "O=C(C=Cc1ccccc1Br)NNC(=O)C(c1ccccc1)C1CCCC1 (stereo not drawn) [Compound 6b]", "Value Units": "nM", "IC50": 104}

API: the following record is the query input.
What does the record list as IC50 for O=C(C=Cc1cccc([N+](=O)[O-])c1)NNC(=O)C(c1cc(F)c(F)cc1F)C1CCCC1 (stereo not drawn) [Compound 7g] ? 54.8
